Attribution: ChEMBL document CHEMBL4308880

- study target: UniProt P21397
- measurement notes: Inhibition of recombinant human MAOA expressed in insect cell microsomes using kynuramine as substrate preincubated with substrate for 30 mins followed by enzyme addition and measured after 20 mins by fluorescence spectrophotometry
pIC50: −log10 of the molar value.
property name: pIC50

Completed entries (count: 6):
INSERT INTO results (chem_smiles, property_name, result) VALUES
  ('Clc1ccc(-c2noc(-c3ccc(C4=NCCN4)cc3)n2)cc1Cl', 'pIC50', 5.95),
  ('Clc1ccccc1-c1noc(-c2ccc(C3=NCCN3)cc2)n1', 'pIC50', 4.77),
  ('Cc1nc(-c2ccc(C3=NCCN3)cc2)no1', 'pIC50', 4.39),
  ('COc1cccc(-c2noc(-c3ccc(C4=NCCN4)cc3)n2)c1', 'pIC50', 4.92),
  ('N#Cc1cccc(C2=NCCN2)c1', 'pIC50', 3.83),
  ('CC(C)c1noc(-c2ccc(C3=NCCN3)cc2)n1', 'pIC50', 4.65);

a: FC(F)(F)c1cnc2c(c1)Oc1ccccc1C1=NCCN12
b: c1ccc(Oc2ccc(-c3noc(-c4ccc(C5=NCCN5)cc4)n3)cc2)cc1
Enquiry: Of a and b , whose reported pIC50 is the larger number? Refer to your chosen item by its label in the answer.
Return: b
(b: 5.56, a: 4.49)

###

- study target: Amine oxidase [flavin-containing] A (Homo sapiens, UniProt P21397)
- Sequence (P21397 whole entry): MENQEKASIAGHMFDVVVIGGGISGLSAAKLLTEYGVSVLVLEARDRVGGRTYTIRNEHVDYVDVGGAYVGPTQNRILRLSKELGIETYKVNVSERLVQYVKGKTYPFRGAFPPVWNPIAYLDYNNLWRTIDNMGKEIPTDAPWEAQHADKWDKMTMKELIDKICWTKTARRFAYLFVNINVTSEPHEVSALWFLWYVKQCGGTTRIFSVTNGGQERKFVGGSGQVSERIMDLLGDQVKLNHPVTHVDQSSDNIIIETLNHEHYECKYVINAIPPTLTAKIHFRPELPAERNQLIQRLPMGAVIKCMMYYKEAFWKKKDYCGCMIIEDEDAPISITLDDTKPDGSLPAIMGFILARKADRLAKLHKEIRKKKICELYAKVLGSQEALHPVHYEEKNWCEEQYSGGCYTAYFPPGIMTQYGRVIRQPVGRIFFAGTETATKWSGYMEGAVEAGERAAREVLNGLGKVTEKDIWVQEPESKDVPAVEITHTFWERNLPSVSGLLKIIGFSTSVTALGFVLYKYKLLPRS
- measurement notes: Inhibition of recombinant human MAOA expressed in insect cell microsomes using kynuramine as substrate preincubated with substrate for 30 mins followed by enzyme addition and measured after 20 mins by fluorescence spectrophotometry
pIC50: −log10 of the molar value.
Catalogue of compounds with associated pIC50

Enquiry: Find the recorded pIC50 belonging to "CCOc1ccc(-c2n[nH]cc2C2=NCCN2)cc1" and report it.
Return: < 4.00

###

- Species: Homo sapiens
- measurement notes: Selectivity index, ratio of IC50 for recombinant human MAOA expressed in insect cell microsomes to IC50 for recombinant human MAOB expressed in insect cell microsomes
property name: Ratio IC50

Completed entries (count: 10):
INSERT INTO results (compound, property_name, result) VALUES
  ('CC(C)c1noc(-c2ccc(C3=NCCN3)cc2)n1', 'Ratio IC50', 97),
  ('N#Cc1cccc(C2=NCCN2)c1', 'Ratio IC50', 78),
  ('Clc1ccccc1-c1noc(-c2ccc(C3=NCCN3)cc2)n1', 'Ratio IC50', 570),
  ('Cc1ccc(-c2noc(-c3ccc(C4=NCC(C)N4)cc3)n2)s1 (stereo not drawn)', 'Ratio IC50', 82),
  ('c1ccc(Oc2ccc(-c3noc(-c4ccc(C5=NCCN5)cc4)n3)cc2)cc1', 'Ratio IC50', 2),
  ('Cc1ccc(Cc2noc(-c3ccc(C4=NCCN4)cc3)n2)cc1', 'Ratio IC50', 15),
  ('Clc1cccc(-c2nc(-c3cccc(C4=NCCN4)c3)no2)c1', 'Ratio IC50', 46),
  ('c1cc(C2=NCCN2)cc(-c2noc(-c3cccs3)n2)c1', 'Ratio IC50', 83),
  ('CC1CN=C(c2ccc(-c3noc(-c4ccc(Cl)c(Cl)c4)n3)cc2)N1 (stereo not drawn)', 'Ratio IC50', 91),
  ('c1cc(-c2noc(C3CC3)n2)ccc1C1=NCCN1', 'Ratio IC50', 1.7);

1: Cc1nn(Cc2nc(-c3cccc(C4=NCCN4)c3)no2)c(=O)c2ccccc12
2: Cc1ccc(-c2nc(-c3ccc(C4=NCCN4)cc3)no2)cc1
Enquiry: Of 1 and 2 , whose reported Ratio IC50 is the larger number? Refer to your chosen item by its label in the answer.
Return: 2
(2: 32, 1: 2.6)

I: Clc1cccc(-c2noc(-c3ccc(C4=NCCN4)cc3)n2)c1
II: CC(C)(C)c1ccc(-c2noc(-c3ccc(C4=NCCN4)cc3)n2)cc1
III: c1ncn(Cc2ccc(-c3noc(-c4ccc(C5=NCCN5)cc4)n3)cc2)n1
IV: Cn1ccnc1SCc1ccc(-c2noc(-c3ccc(C4=NCCN4)cc3)n2)cc1
V: COc1cccc(-c2noc(-c3ccc(C4=NCCN4)cc3)n2)c1
Enquiry: Arrange these compounds by their Ratio IC50, starting with the largest number. Record the ranking as a list of labels in the requested order.
Return: I, V, IV, III, II

###

- study target: Amine oxidase [flavin-containing] A (Homo sapiens, UniProt P21397)
- measurement notes: Inhibition of recombinant human MAOA expressed in insect cell microsomes using kynuramine as substrate preincubated with substrate for 30 mins followed by enzyme addition and measured after 20 mins by fluorescence spectrophotometry
pIC50: −log10 of the molar value.
property name: pIC50

INSERT INTO assay_data (compound, result) VALUES
  ('Clc1cccc(-c2nc(-c3cccc(C4=NCCN4)c3)no2)c1', 5.86);

1: Cc1ccc(-c2noc(-c3ccc(C4=NCC(C)N4)cc3)n2)s1 (stereo unspecified)
2: Clc1cccc(-c2noc(-c3ccc(C4=NCCN4)cc3)n2)c1
3: CC1CN=C(c2ccc(-c3noc(-c4ccc(Cl)c(Cl)c4)n3)cc2)N1 (stereo unspecified)
Enquiry: Your job: order these 3 records by pIC50, ascending. Record the ranking as a list of labels in the requested order.
Return: 1, 3, 2

###

- study target: Amine oxidase [flavin-containing] B (Homo sapiens, UniProt P27338)
- Sequence (P27338 whole entry): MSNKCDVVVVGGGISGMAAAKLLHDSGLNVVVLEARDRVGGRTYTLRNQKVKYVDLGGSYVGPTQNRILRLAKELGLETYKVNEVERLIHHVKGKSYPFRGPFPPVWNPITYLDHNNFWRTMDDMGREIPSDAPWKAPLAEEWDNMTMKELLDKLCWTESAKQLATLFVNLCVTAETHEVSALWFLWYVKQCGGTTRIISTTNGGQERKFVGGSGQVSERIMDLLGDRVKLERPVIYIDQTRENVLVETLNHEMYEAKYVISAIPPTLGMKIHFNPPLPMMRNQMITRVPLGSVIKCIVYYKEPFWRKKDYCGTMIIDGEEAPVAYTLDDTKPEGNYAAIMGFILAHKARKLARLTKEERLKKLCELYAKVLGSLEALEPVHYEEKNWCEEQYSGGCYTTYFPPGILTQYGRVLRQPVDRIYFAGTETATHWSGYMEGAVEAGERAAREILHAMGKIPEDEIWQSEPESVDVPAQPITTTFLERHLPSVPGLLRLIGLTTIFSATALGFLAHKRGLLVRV
- measurement notes: Inhibition of recombinant human MAOB expressed in insect cell microsomes using kynuramine as substrate preincubated with substrate for 30 mins followed by enzyme addition and measured after 20 mins by fluorescence spectrophotometry
pIC50: −log10 of the molar value.
property name: pIC50

Completed entries (count: 5):
INSERT INTO assay_data (compound, study_target, result) VALUES
  ('c1cc(C2=NCCN2)cc(-c2noc(-c3cccs3)n2)c1', 'Amine oxidase [flavin-containing] B (Homo sapiens, UniProt P27338)', 5.97),
  ('c1csc(-c2noc(-c3ccc(C4=NCCN4)cc3)n2)c1', 'Amine oxidase [flavin-containing] B (Homo sapiens, UniProt P27338)', 6.05),
  ('Cc1nn(Cc2nc(-c3cccc(C4=NCCN4)c3)no2)c(=O)c2ccccc12', 'Amine oxidase [flavin-containing] B (Homo sapiens, UniProt P27338)', 4.62),
  ('Clc1ccc(-c2noc(-c3ccc(C4=NCCN4)cc3)n2)cc1Cl', 'Amine oxidase [flavin-containing] B (Homo sapiens, UniProt P27338)', 7.92),
  ('Clc1cccc(-c2nc(-c3cccc(C4=NCCN4)c3)no2)c1', 'Amine oxidase [flavin-containing] B (Homo sapiens, UniProt P27338)', 7.52);

I: Cc1ccc(Cc2noc(-c3ccc(C4=NCCN4)cc3)n2)cc1
II: Cc1ccc(-c2noc(-c3ccc(C4=NCC(C)N4)cc3)n2)s1 (stereo unspecified)
III: O=c1ccc(-c2ccccc2)nn1Cc1noc(-c2ccc(C3=NCCN3)cc2)n1
Enquiry: Your job: order these 3 records by pIC50, ascending. Record the ranking as a list of labels in the requested order.
Return: I, III, II

###

- study target: Amine oxidase [flavin-containing] B (Homo sapiens, UniProt P27338)
property name: pKi
Quick note: pKi means taking -log10 of the concentration in moles per liter.

Enquiry: Enter reported pKi observed with Amine oxidase [flavin-containing] B (Homo sapiens, UniProt P27338) for "Cc1ccc(-c2nc(-c3ccc(C4=NCCN4)cc3)no2)cc1"
Return: 7.42

###

- Organism: Homo sapiens
- measurement notes: Selectivity index, ratio of IC50 for recombinant human MAOA expressed in insect cell microsomes to IC50 for recombinant human MAOB expressed in insect cell microsomes
property name: Ratio IC50

Completed entries (count: 5):
INSERT INTO results (chem_smiles, result) VALUES
  ('COc1ccc(-c2noc(-c3ccc(C4=NCCN4)cc3)n2)cc1OC', '> 132'),
  ('c1ccc(-c2ccc(-c3noc(-c4ccc(C5=NCCN5)cc4)n3)cc2)cc1', '> 2.1'),
  ('c1csc(-c2noc(-c3ccc(C4=NCCN4)cc3)n2)c1', 1.7),
  ('FC(F)(F)c1cnc2c(c1)Oc1ccccc1C1=NCCN12', '< 0.32'),
  ('c1ccc(OCc2noc(-c3ccc(C4=NCCN4)cc3)n2)cc1', '> 10');

Enquiry: Find the recorded Ratio IC50 belonging to "Cc1nc(-c2ccc(C3=NCCN3)cc2)no1" and report it.
Return: 1

###

- study target: Amine oxidase [flavin-containing] B (Homo sapiens, UniProt P27338)
- measurement notes: Inhibition of recombinant human MAOB expressed in insect cell microsomes using kynuramine as substrate preincubated with substrate for 30 mins followed by enzyme addition and measured after 20 mins by fluorescence spectrophotometry
property name: IC50 (nM)

Completed entries (count: 10):
INSERT INTO results (molecule, study_target, result) VALUES
  ('COc1cccc(-c2noc(-c3ccc(C4=NCCN4)cc3)n2)c1', 'Amine oxidase [flavin-containing] B (Homo sapiens, UniProt P27338)', 216),
  ('O=c1c2ccccc2cnn1Cc1noc(-c2ccc(C3=NCCN3)cc2)n1', 'Amine oxidase [flavin-containing] B (Homo sapiens, UniProt P27338)', 1260),
  ('Clc1ccccc1-c1noc(-c2ccc(C3=NCCN3)cc2)n1', 'Amine oxidase [flavin-containing] B (Homo sapiens, UniProt P27338)', 30),
  ('c1ccc(OCc2noc(-c3ccc(C4=NCCN4)cc3)n2)cc1', 'Amine oxidase [flavin-containing] B (Homo sapiens, UniProt P27338)', 9980),
  ('c1ccc(-c2ccc(-c3noc(-c4ccc(C5=NCCN5)cc4)n3)cc2)cc1', 'Amine oxidase [flavin-containing] B (Homo sapiens, UniProt P27338)', 47600),
  ('c1ccc(-n2cc(C3=NCCN3)c(-c3cccs3)n2)cc1', 'Amine oxidase [flavin-containing] B (Homo sapiens, UniProt P27338)', 18400),
  ('Cc1nc(-c2ccc(C3=NCCN3)cc2)no1', 'Amine oxidase [flavin-containing] B (Homo sapiens, UniProt P27338)', 39700),
  ('Cn1ccnc1SCc1ccc(-c2noc(-c3ccc(C4=NCCN4)cc3)n2)cc1', 'Amine oxidase [flavin-containing] B (Homo sapiens, UniProt P27338)', 2280),
  ('c1ncn(Cc2ccc(-c3noc(-c4ccc(C5=NCCN5)cc4)n3)cc2)n1', 'Amine oxidase [flavin-containing] B (Homo sapiens, UniProt P27338)', 9020),
  ('Cc1ccc(-c2nc(-c3ccc(C4=NCCN4)cc3)no2)cc1', 'Amine oxidase [flavin-containing] B (Homo sapiens, UniProt P27338)', 71);

I: Clc1cccc(-c2noc(-c3ccc(C4=NCCN4)cc3)n2)c1
II: CC1CN=C(c2ccc(-c3noc(-c4ccc(Cl)c(Cl)c4)n3)cc2)N1 (configuration not stated)
III: COc1ccc(-c2noc(-c3ccc(C4=NCCN4)cc3)n2)cc1OC
Enquiry: Your job: order these 3 records by IC50, ascending. Record the ranking as a list of labels in the requested order.
Return: I, II, III

1: CC(C)c1noc(-c2ccc(C3=NCCN3)cc2)n1
2: c1ccc(Oc2ccc(-c3noc(-c4ccc(C5=NCCN5)cc4)n3)cc2)cc1
3: N#Cc1ccc(C2=NCCN2c2ccc(C(F)(F)F)cn2)cc1
4: N#Cc1ccc(C2=NCCN2c2cnccn2)cc1
5: CC(C)(C)c1ccc(-c2noc(-c3ccc(C4=NCCN4)cc3)n2)cc1
Enquiry: Your job: order these 5 records by IC50, ascending. Record the ranking as a list of labels in the requested order.
Return: 1, 5, 2, 4, 3
